test system: CDK11, CDK8; experiment: KiNativ assay; format: binding; settings: H929 live cell
Task for the reader: assign each of the following molecules its reported inhibition (10 μM).
Unit % implied. Number only.

Q. Give its inhibition (10 μM) value. Item: `COc1cc(NS(=O)(=O)C2CC2)ccc1-c1cnc(N)c(-c2ccc3c(c2)CCNC3=O)c1`
A. 38.1

Q. Give its inhibition (10 μM) value. Item: `Nc1ncc(-c2ccc(NS(=O)(=O)C3CC3)cc2OC2CCCCC2)cc1-c1ccc2c(c1)CCNC2=O`
A. 31.3

Q. Give its inhibition (10 μM) value. Item: `Nc1ncc(-c2cccc3ncsc23)cc1-c1ccc2c(c1)CCNC2=O`
A. 59.3

Q. Give its inhibition (10 μM) value. Item: `CN(C1CC1)S(=O)(=O)c1ccc(-c2cnc(N)c(-c3ccc4c(c3)CCNC4=O)c2)c(F)c1`
A. 4.9

Q. Give its inhibition (10 μM) value. Item: `Nc1ncc(-c2cccc([N+](=O)[O-])c2F)cc1-c1ccc2c(c1)CCNC2=O`
A. 35.5

Q. Give its inhibition (10 μM) value. Item: `Nc1ncc(-c2ccc(NS(=O)(=O)C3CC3)cc2F)cc1-c1ccc2c(c1)CCNC2=O`
A. 31.8

====

molecular target: RSK1 domain1 (Homo sapiens (Human)); experiment: KiNativ assay; type: binding; settings: H929 live cell, read-out: inhibition (10 μM)
Sequence (Q15418 whole entry, the tested form may be a part): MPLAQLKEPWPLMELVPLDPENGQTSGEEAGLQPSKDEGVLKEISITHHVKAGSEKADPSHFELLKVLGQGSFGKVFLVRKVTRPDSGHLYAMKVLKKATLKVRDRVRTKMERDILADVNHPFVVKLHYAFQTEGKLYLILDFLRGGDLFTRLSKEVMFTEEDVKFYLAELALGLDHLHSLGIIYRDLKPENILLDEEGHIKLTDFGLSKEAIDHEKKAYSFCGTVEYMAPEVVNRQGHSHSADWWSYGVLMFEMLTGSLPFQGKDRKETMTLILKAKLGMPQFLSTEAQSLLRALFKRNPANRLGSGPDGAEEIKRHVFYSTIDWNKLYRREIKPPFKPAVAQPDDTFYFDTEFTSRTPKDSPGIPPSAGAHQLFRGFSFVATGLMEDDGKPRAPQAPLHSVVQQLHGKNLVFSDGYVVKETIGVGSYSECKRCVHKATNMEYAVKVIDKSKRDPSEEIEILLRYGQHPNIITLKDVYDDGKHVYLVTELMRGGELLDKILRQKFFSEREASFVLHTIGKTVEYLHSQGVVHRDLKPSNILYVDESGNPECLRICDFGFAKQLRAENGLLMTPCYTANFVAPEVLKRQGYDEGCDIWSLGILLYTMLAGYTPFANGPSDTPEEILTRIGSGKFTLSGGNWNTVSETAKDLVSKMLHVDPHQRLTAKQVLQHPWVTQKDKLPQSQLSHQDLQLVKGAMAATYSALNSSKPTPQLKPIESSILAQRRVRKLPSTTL
endpoint: inhibition at 10 µM (%)
Unit % implied. Number only.

Q. Give its inhibition at 10 µM value. Item: Nc1ncc(-c2ccc(NS(=O)(=O)C3CC3)cc2F)cc1-c1ccc2c(c1)CCNC2=O [Compound I-51]
A. 5.4

Q. Give its inhibition at 10 µM value. Item: Nc1ncc(-c2cccc3ncsc23)cc1-c1ccc2c(c1)CCNC2=O [Compound I-13]
A. 3.3

Q. Give its inhibition at 10 µM value. Item: Nc1ncc(-c2cccc([N+](=O)[O-])c2F)cc1-c1ccc2c(c1)CCNC2=O [Compound I-9]
A. 24

Q. Give its inhibition at 10 µM value. Item: COc1cc(NS(=O)(=O)C2CC2)ccc1-c1cnc(N)c(-c2ccc3c(c2)CCNC3=O)c1 [Compound I-50]
A. -4.6

Q. Give its inhibition at 10 µM value. Item: Nc1ncc(-c2ccc(NS(=O)(=O)C3CC3)cc2OC2CCCCC2)cc1-c1ccc2c(c1)CCNC2=O [Compound I-65]
A. 59.9

Q. Give its inhibition at 10 µM value. Item: CN(C1CC1)S(=O)(=O)c1ccc(-c2cnc(N)c(-c3ccc4c(c3)CCNC4=O)c2)c(F)c1 [Compound I-28]
A. 15.6

====

Tested on: p-MOB1
Experiment: Western blotting
Format: cell-based
Conditions: MM.1S cells, 1 μM and 10 μM, 6 hours
From the text: MM.1S, KMS20 and H929 cells are counted, diluted and plated. Cells are then […] with DMSO or different concentration of a compound of the present application for 6 hrs, 24 hrs or 48 hrs. MM cells are then collected and centrifuged at RT and the pellets are re-suspended in lysis buffer. […] MM.1S, KMS20 and H929 cells were counted, diluted and plated in six-well plates to a final concentration of 500,000 cells/well. […]
endpoint: PMOB1 levels

Some compounds with recorded PMOB1 levels:
# smiles_repr, PMOB1 levels
records = [
    ("Nc1ncc(-c2cccc([N+](=O)[O-])c2F)cc1-c1ccc2c(c1)CCNC2=O", "reduced"),
    ("Nc1ncc(-c2cc([N+](=O)[O-])c(NCc3ccccc3)cc2F)cc1-c1ccc2c(c1)CCNC2=O", "reduced"),
    ("Nc1ncc(-c2cccc3ncsc23)cc1-c1ccc2c(c1)CCNC2=O", "reduced"),
    ("CN(C1CC1)S(=O)(=O)c1ccc(-c2cnc(N)c(-c3ccc4c(c3)CCNC4=O)c2)c(F)c1", "reduced"),
]

Q. Give its PMOB1 levels value. Item: `Nc1ncc(-c2cc([N+](=O)[O-])ccc2F)cc1-c1ccc2c(c1)CCNC2=O`
A. reduced

Q. Give its PMOB1 levels value. Item: `Nc1ncc(-c2cc3c(cc2F)OCC(=O)N3)cc1-c1ccc2c(c1)CCNC2=O`
A. reduced

Q. Give its PMOB1 levels value. Item: `Nc1ncc(-c2cc([N+](=O)[O-])c(Cl)cc2F)cc1-c1ccc2c(c1)CCNC2=O`
A. reduced
